- Tested on: A673/TR/shEF
- ASSAY PROTOCOL: cell viability (LOESS-normalised, relative to median of negative controls) (log2 ratio); higher = more viable cells (less compound effect), active = hit call of the paper (over 3 MAD below the median)
- CONDITION DETAILS: 2.5 µM; library screen: screen1; EWS-FLI1 expression: low (doxycycline-induced shRNA knockdown); treatment time: 72 h
The campaign covered roughly 3,200 compounds. About 300 (9.4%) showed activity. The sample holds actives, similar compounds and a random draw of the others, so the mix is not that of the screen.
# label = True if cell viability (log2) < 0.06 else False

Lookup: Input CC1(C)C(C=C(Cl)Cl)C1C(=O)OC(C#N)c1cccc(Oc2ccccc2)c1 (stereo not given) ; condition: cell viability (log2) strictly below 0.06. Does it hold?
Found: True

Lookup: Does the reported cell viability (log2) of the following compound sit strictly below 0.06? CC(C)CC(NC(=O)C(Cc1ccccc1)NC(=O)CNC(=O)CNC(=O)C(N)Cc1ccc(O)cc1)C(=O)O (stereo not given)
Found: False

Lookup: Please state whether cell viability (log2) is below 0.06 for CCCCSP(=O)(SCCCC)SCCCC
Found: False

Lookup: Is the reported cell viability (log2) for N#C/C(=C\c1cccc(O)c1)C(=O)O strictly below 0.06?
Found: False

Lookup: Below 0.06 on cell viability (log2)? Entry CNC(=O)Oc1cccc2c1OC(C)(C)O2
Found: False

Lookup: Given the entry CC[C@H]1CN2CC[C@H]1C[C@@H]2[C@@H](O)c1ccnc2ccc(OC)cc12 , would its reported cell viability (log2) be below 0.06?
Found: False

Lookup: Dear colleague, could you confirm whether cell viability (log2) of CO[C@H]1[C@H](O)[C@H](O[C@H]2CC[C@@]3(C)[C@H](CC[C@@H]4[C@@H]3CC[C@]3(C)[C@@H](C5=CC(=O)OC5)CC[C@]43O)C2)O[C@@H](C)[C@@H]1O falls below 0.06? Thanks.
Found: True

Lookup: Check if cell viability (log2) falls below 0.06 for COc1ccc2c3c1O[C@H]1[C@@H](O)CCC4[C@@H](C2)N(C)CC[C@@]341 (stereo not given in full) .
Found: False

Lookup: For this compound, is cell viability (log2) lower than 0.06? C[C@]12CC[C@H](O)CC1=CC[C@@H]1[C@@H]2CC[C@]2(C)C(=O)CC[C@@H]12
Found: False

Lookup: In plain terms, does CC(C)(C#N)O[C@@H]1O[C@H](CO)[C@@H](O)[C@H](O)[C@H]1O come in under 0.06 for cell viability (log2)?
Found: True

Lookup: Check if cell viability (log2) falls below 0.06 for Cc1ccccc1CN1CCN(Cc2ccc(F)cc2)CC1 .
Found: False

Lookup: Please state whether cell viability (log2) is below 0.06 for Cc1c(N)nc([C@H](CC(N)=O)NC[C@H](N)C(N)=O)nc1C(=O)N[C@H](C(=O)N[C@H](C)[C@@H](O)[C@H](C)C(=O)N[C@H](C(=O)NCCc1nc(-c2nc(C(=O)NCCC[S+](C)C)cs2)cs1)[C@@H](C)O)[C@@H](OC1OC(CO)C(O)C(O)C1OC1OC(CO)C(O)C(OC(N)=O)C1O)c1cnc[nH]1 (stereo not given in full)
Found: True

Lookup: In plain terms, does COC[C@H]1OC(=O)c2coc3c2[C@@]1(C)C1=C(C3=O)[C@@H]2CCC(=O)[C@@]2(C)C[C@H]1OC(C)=O come in under 0.06 for cell viability (log2)?
Found: True

Lookup: Does Brc1ccc(CN2CCNCC2)cc1 have cell viability (log2) strictly under 0.06?
Found: False

Lookup: API: query returns whether the compound falls strictly under 0.06 in cell viability (log2). Query: CNC(=O)O/N=C(\C)SC
Found: False

Lookup: Decide: cell viability (log2) of CCCC(C)C1(CC)C(=O)NC(=S)NC1=O (stereo not given) strictly below 0.06?
Found: False

Lookup: Consider the compound C[C@@H]1[C@H](O)[C@@H](C)/C=C/C=C/CC/C=C/C=C/C=C/C=C/C(O[C@H]2O[C@H](C)[C@@H](O)[C@H](N)[C@@H]2O)CC2O[C@](O)(CC(O)C(O)CCC(O)CC(O)CC(O)CC(=O)O[C@H]1C)CC(O)C2C(=O)O (stereo not given in full) . Is its cell viability (log2) strictly less than 0.06?
Found: False

Lookup: Lab note: cell viability (log2) threshold 0.06. Does this compound come in strictly under it? CCCCCC[C@H]1C(=O)O[C@H](C)[C@H](NC(=O)c2cccc(NC=O)c2O)C(=O)O[C@@H](C)[C@@H]1OC(=O)CC(C)C
Found: True

Lookup: Consider the compound O=S1OCC2C(CO1)C1(Cl)C(Cl)=C(Cl)C2(Cl)C1(Cl)Cl (stereo not given) . Is its cell viability (log2) strictly less than 0.06?
Found: True

Lookup: Consider C/C(O)=C(\C#N)C(=O)Nc1cc(Br)ccc1Br . Does its cell viability (log2) lie strictly below 0.06?
Found: True

Lookup: Find out if reported cell viability (log2) for C[C@@H]1C[C@@H]([C@H](O)CC2CC(=O)NC(=O)C2)C(=O)[C@@H](C)C1 is less than 0.06
Found: True

Lookup: Consider O=P(O)(O)Cc1ccccc1 . Does its cell viability (log2) lie strictly below 0.06?
Found: True

Lookup: cell viability (log2) strictly < 0.06 for this compound? N#CC(C#N)=Cc1ccc(O)cc1
Found: False

Lookup: In plain terms, does c1ccc2c(c1)cc1ccc3cccc4ccc2c1c34 come in under 0.06 for cell viability (log2)?
Found: False

Lookup: Say whether its cell viability (log2) is strictly beneath 0.06. Entry: NCCC(O)C(=O)NC1CC(N)C(OC2OC(CN)C(O)C(O)C2N)C(OC2OC(CO)C(O)C2O)C1O (stereo not given)
Found: True

Lookup: Confirm or reject: cell viability (log2) of C[CH2][Hg][S]c1ccccc1C(=O)O lies strictly below 0.06
Found: True

Lookup: Consider the compound COc1cc([C@@H]2c3cc4c(cc3[C@H](O)[C@H]3COC(=O)[C@@H]23)OCO4)cc(OC)c1OC . Is its cell viability (log2) strictly less than 0.06?
Found: True

Lookup: Please state whether cell viability (log2) is below 0.06 for CC(=O)O[C@H]1C[C@@H](OC(C)=O)C(C)(C)C2C[C@@H](OC(C)=O)[C@]3(C)C(CC[C@@]4(C)[C@H](c5ccoc5)C(=O)[C@H]5O[C@]543)[C@]21C (stereo not given in full)
Found: False

Lookup: I wonder whether CC[C@@]1(O)C(=O)OCc2c1cc1n(c2=O)Cc2cc3ccccc3nc2-1 has cell viability (log2) below 0.06. Can you tell?
Found: True

Lookup: # TODO verify cell viability (log2) < 0.06 strictly for this compound: S=C=NCc1ccccc1
Found: False

Lookup: cell viability (log2) under 0.06? Item: C[C@]12CCC(=O)C=C1CCc1ccc(O)cc12
Found: False

Lookup: Threshold test, cell viability (log2) < 0.06: CC(N)Cc1ccc(O)cc1 (stereo not given)
Found: True

Lookup: Please indicate whether the reported cell viability (log2) of CCCCOC(=O)c1ccccc1C(=O)OCCCC is strictly below 0.06.
Found: True

Lookup: Field: below-cutoff. Rule: recorded cell viability (log2) strictly less than 0.06. Subject: N#CC(C#N)=Cc1ccc([N+](=O)[O-])c(O)c1
Found: True

Lookup: Here's an entry: ClC1=C(Cl)[C@]2(Cl)[C@H]3[C@H]([C@@H]4C=C[C@H]3C4)[C@@]1(Cl)C2(Cl)Cl . Is its cell viability (log2) below 0.06?
Found: False

Lookup: Please determine if CC(=O)Oc1ccc(Cl)c2cccnc12 is below 0.06 in terms of cell viability (log2).
Found: False

Lookup: cell viability (log2) under 0.06? Item: CNc1ccccc1C(=O)O
Found: True

----------
- Test system: A673/TR/shEF
- ASSAY PROTOCOL: cell viability (LOESS-normalised, relative to median of negative controls) (log2 ratio); higher = more viable cells (less compound effect), active = hit call of the paper (over 3 MAD below the median)
- CONDITION DETAILS: 2.5 µM; library screen: screen1; EWS-FLI1 expression: high (no doxycycline); treatment time: 72 h
Among all 3,200 compounds or so, about 300 (9.4%) showed activity. Many of the other results were omitted from the sample, so actives are more common in it than they were.
Provide the recorded cell viability (log2) for the entries that follow.
// return a plain number; no unit text

Lookup: Tell me measured cell viability (log2) for C/C=C/c1ccc2c(c1)OCO2 please.
Found: 0.1

Lookup: Return the recorded cell viability (log2) value; entry: CCCSP(=O)(OCC)SCCC
Found: 0.0625

Lookup: Report measured cell viability (log2); entry is COc1ccc(C(=O)O)cc1OC
Found: 0.137

Lookup: For the molecule CCNc1nc(Cl)nc(NC(C)C)n1 , give its measured cell viability (log2) value.
Found: 0.132

Lookup: Report cell viability (log2), nothing else, for this molecule: CC(C)N(C(=O)CCl)c1ccccc1
Found: 0.154

Lookup: Please report the measured cell viability (log2) for C[C@]12CCC(=O)C=C1CCc1ccc(O)cc12
Found: 0.111

Lookup: Specify measured cell viability (log2) for CCCCOC(=O)c1ccccc1C(=O)OCCCC .
Found: 0.0831

Lookup: Look up cell viability (log2) of CCCCCCCCCCCCCCCC[n+]1ccccc1 and report it.
Found: -1.66

Lookup: Please list cell viability (log2) recorded for the molecule O=C(O)CCCc1ccc(N(CCCl)CCCl)cc1
Found: 0.142

Lookup: Specify cell viability (log2) for CC[C@@]1(O)C[C@H](OC2C[C@@H](N(C)C)C(O)C(C)O2)c2c(cc3c(c2O)C(=O)c2c(O)ccc(O)c2C3=O)[C@H]1C(=O)OC (some centres not stated) and stop.
Found: -0.221

Lookup: Specify cell viability (log2) for C[C@@H]1CC[C@H]2[C@@H](C)C(=O)O[C@@H]3OC4(C)CC[C@@H]1[C@]32OO4 and stop.
Found: 0.0419

Lookup: Name the recorded cell viability (log2) of the molecule listed here: N[C@@H](Cc1ccc(N(CCCl)CCCl)cc1)C(=O)O
Found: 0.00755
